# Tested on: MOLM-13 cells
# method_summary: Cell viability assay (CellTiter-Glo) in MOLM-13 cells, alone or with gilteritinib
# Format: cell-based
# assay_conditions: Homo sapiens, MOLM-13, 72 h, MOLM-13 cells, with gilteritinib 20 nM, three days, CellTiter-Glo; read-out: MOLM-13 IC50 gilteritinib
endpoint_name: IC50

Can you look up the measured IC50 of O=C1CCC(N2C(=O)c3ccc(NC[C@H]4C[C@H](n5cc(-c6nccc7cn[nH]c67)c(C6CC6)n5)C4)cc3C2=O)C(=O)N1 (stereo partly drawn) [GS-310] for me? 10 to 100 nM

Would you kindly repeat that for O=C1CCC(N2Cc3ccc(CCCCCC(=O)N4CCC(c5ccccn5)CC4)cc3C2=O)C(=O)N1 (stereo not drawn) [GS-104] ? 100 to 1000 nM

Would you kindly repeat that for O=C1CCC(N2C(=O)c3ccc(NC[C@H]4C[C@H](n5cc(-c6nccc7nccnc67)c(C6CC6)n5)C4)cc3C2=O)C(=O)N1 (stereo partly drawn) [GS-309] ? < 10 nM

Would you kindly repeat that for O=C1CCC(N2C(=O)c3ccc(NCCC[C@H]4C[C@H](n5cc(-c6cnc7ccc(NC8CCNCC8)cc7n6)cn5)C4)cc3C2=O)C(=O)N1 (stereo partly drawn) [GS-196] ? < 10 nM

Would you kindly repeat that for O=C1CCC(N2C(=O)c3ccc(NC[C@H]4C[C@H](n5cc(-c6cccc(=O)[nH]6)c(C6CC6)n5)C4)cc3C2=O)C(=O)N1 (stereo partly drawn) [GS-270] ? > 1000 nM

Would you kindly repeat that for O=C1CCC(N2C(=O)c3ccc(NC[C@H]4C[C@H](n5cc(-c6cnc7c(N8CCOCC8)cccc7n6)c(C6CC6)n5)C4)cc3C2=O)C(=O)N1 (stereo partly drawn) [GS-266] ? < 10 nM

###

# Tested on: MOLM-13 cells
# method_summary: Cell viability assay (CellTiter-Glo) in MOLM-13 cells, alone or with gilteritinib
# Assay type: cell-based
# assay_conditions: Homo sapiens, MOLM-13, 72 h, MOLM-13 cells, with gilteritinib 20 nM, three days, CellTiter-Glo; read-out: MOLM-13 IC50 gilteritinib
Provide the reported IC50 of each item.

Can you look up the measured IC50 of O=C1CCC(N2Cc3c(Nc4ccnc(N5CCC(N6CCC(n7cc(-c8cnc9ccccc9n8)cn7)CC6)C5)n4)cccc3C2=O)C(=O)N1 (stereo not drawn) for me? > 1000 nM

Would you kindly repeat that for O=C1CCC(N2Cc3c(NC4CCCC(CCCC(=O)N5CCC(n6cc(-c7cnc8ccccc8n7)cn6)CC5)C4)cccc3C2=O)C(=O)N1 (stereo not drawn) ? > 1000 nM

Would you kindly repeat that for O=C1CCC(N2C(=O)c3ccc(NC[C@H]4C[C@H](n5cc(-c6cc7[nH]ccc7cn6)c(C6CC6)n5)C4)cc3C2=O)C(=O)N1 (stereo partly drawn) ? 10 to 100 nM

###

# System: MOLM-13 cells
# method_summary: Cell viability assay (CellTiter-Glo) in MOLM-13 cells, alone or with gilteritinib
# Type: cell-based
# assay_conditions: Homo sapiens, MOLM-13, 72 h, MOLM-13 cells, compound alone (without gilteritinib), three days, CellTiter-Glo; read-out: MOLM-13 IC50
Provide the reported IC50 of each item.

Request - read-out IC50 | tested on MOLM-13 cells | compound O=C1CCC(N2C(=O)c3ccc(NCCC[C@H]4C[C@H](n5cc(-c6cccc(N7CCNCC7)n6)cn5)C4)cc3C2=O)C(=O)N1 (stereo partly shown) [GS-247] > 1000 nM

Would you kindly repeat that for O=C1CCC(N2C(=O)c3ccc(CNCCCn4cc(-c5cnc6ccccc6n5)c(C5CC5)n4)cc3C2=O)C(=O)N1 (stereo not shown) [GS-313] ? > 1000 nM

Would you kindly repeat that for O=C1CCC(N2C(=O)c3ccc(NCCC[C@H]4C[C@@H](n5cc(-c6cnc7ccc(C8CCNCC8)cc7n6)c(C6CC6)n5)C4)cc3C2=O)C(=O)N1 (stereo partly shown) [GS-231] ? 10 to 100 nM

Would you kindly repeat that for O=C1CCC(N2C(=O)c3ccc(NCCCC4CC(n5cc(-c6cnc7ccc(N8CCNCC8)cc7n6)cn5)C4)cc3C2=O)C(=O)N1 (stereo not shown) [GS-174] ? > 1000 nM

Would you kindly repeat that for O=C1CCC(N2C(=O)c3ccc(NCCC[C@H]4C[C@@H](n5cc(-c6cnc7ccc(C8CCOCC8)cc7n6)cn5)C4)cc3C2=O)C(=O)N1 (stereo partly shown) [GS-182] ? 100 to 1000 nM

Would you kindly repeat that for O=C1CCC(N2C(=O)c3ccc(NCCCCCCn4cc(-c5cnc6ccc(C7CCOCC7)cc6n5)cn4)cc3C2=O)C(=O)N1 (stereo not shown) [GS-542] ? 10 to 100 nM

Would you kindly repeat that for O=C1CCC(N2C(=O)c3ccc(NC[C@H]4C[C@H](n5nccc5C5CC5)C4)cc3C2=O)C(=O)N1 (stereo partly shown) [GS-590] ? < 10 nM

Would you kindly repeat that for O=C1CCC(N2C(=O)c3ccc(NC[C@H]4C[C@H](n5cc(-c6ccccn6)c(C6CC6)n5)C4)cc3C2=O)C(=O)N1 (stereo partly shown) [GS-595] ? 100 to 1000 nM

Would you kindly repeat that for CN(Cc1ccc2c(c1)CN(C1CCC(=O)NC1=O)C2=O)C(=O)CCCC(=O)N1CCC(n2cc(-c3cnc4cccc(Br)c4n3)cn2)CC1 (stereo not shown) [GS-058] ? 100 to 1000 nM

Would you kindly repeat that for O=C1CCC(N2C(=O)c3ccc(NCCCCC(=O)N4CCC(n5cc(-c6cnc7ccc(N8CCNCC8)cc7n6)cn5)CC4)cc3C2=O)C(=O)N1 (stereo not shown) [GS-543] ? 10 to 100 nM

Would you kindly repeat that for Cc1nn([C@H]2C[C@@H](CCCNc3ccc4c(c3)C(=O)N(C3CCC(=O)NC3=O)C4=O)C2)cc1-c1cnc2cc(N3CCNCC3)ccc2n1 (stereo partly shown) [GS-434] ? 10 to 100 nM

Would you kindly repeat that for CN1CCN(c2ccc(-c3cn([C@H]4C[C@H](CNc5ccc6c(c5)C(=O)N(C5CCC(=O)NC5=O)C6=O)C4)nc3C3CC3)nc2)CC1 (stereo partly shown) [GS-298] ? > 1000 nM

Would you kindly repeat that for O=C1CCC(N2C(=O)c3ccc(NCCCCCC(=O)N4CCC(F)(c5ccccc5)CC4)cc3C2=O)C(=O)N1 (stereo not shown) [GS-348] ? 10 to 100 nM
